Below, each of the compounds is paired with its reported MIC value.
- System: Bacillus subtilis ATCC 23857
- METHOD: ≥ marks a high value that may be exact or a test limit, other limits are often not marked, values filed in µg/mL are converted to µM
READOUT_KIND: MIC (µM)

INSERT INTO assay_data (smiles_code, quantitative_result) VALUES
  ('NC(=O)[C@H](Cc1c[nH]c2ccccc12)NC(=O)[C@H](Cc1c[nH]c2ccccc12)NC(=O)[C@H](CCCN=C(N)N)NC(=O)[C@H](CCCN=C(N)N)NC(=O)[C@H](Cc1c[nH]c2ccccc12)NC(=O)[C@H](CCCN=C(N)N)NC(=O)[C@H](CCCN=C(N)N)NC(=O)[C@H](Cc1c[nH]c2ccccc12)NC(=O)[C@H](Cc1c[nH]c2ccccc12)NC(=O)[C@@H](N)CCCN=C(N)N', 4),
  ('CC[C@H](C)[C@H](N)C(=O)N[C@@H](CCCN=C(N)N)C(=O)N[C@@H](Cc1c[nH]c2ccccc12)C(=O)N[C@@H](Cc1c[nH]c2ccccc12)C(=O)N[C@@H](Cc1c[nH]c2ccccc12)C(=O)N[C@@H](CCCN=C(N)N)C(=O)N[C@H](C(N)=O)[C@@H](C)CC', 8),
  ('NC(=O)[C@H](Cc1ccccc1)NC(=O)[C@H](CCCN=C(N)N)NC(=O)[C@H](CCCN=C(N)N)NC(=O)[C@H](Cc1c[nH]c2ccccc12)NC(=O)[C@H](Cc1c[nH]c2ccccc12)NC(=O)[C@H](Cc1c[nH]c2ccccc12)NC(=O)[C@H](CCCN=C(N)N)NC(=O)[C@H](CCCN=C(N)N)NC(=O)[C@@H](N)Cc1ccccc1', 2);

* * *

- Test system: Pseudomonas aeruginosa
- METHOD: ≥ marks a high value that may be exact or a test limit, other limits are often not marked, values filed in µg/mL are converted to µM
Below, each of the molecules is paired with its reported MIC value.
READOUT_KIND: MIC (µM)

INSERT INTO assay_data (smiles_code, unit_annotation, quantitative_result) VALUES
  ('CC[C@H](C)[C@H](NC(=O)[C@H](C)NC(=O)[C@H](CC(C)C)NC(=O)[C@H](CCCN=C(N)N)NC(=O)[C@H](CC(C)C)NC(=O)[C@H](C)N)C(=O)N[C@@H](CCCN=C(N)N)C(=O)N[C@@H](CCCCN)C(=O)N[C@@H](CCCN=C(N)N)C(N)=O', 'µM', 13.7),
  ('CC[C@H](C)[C@H](N)C(=O)N[C@@H](CC(N)=O)C(=O)N[C@@H](CC(C)C)C(=O)N[C@@H](CCCCN)C(=O)N[C@@H](C)C(=O)N[C@H](C(=O)N[C@@H](C)C(=O)N[C@@H](C)C(=O)N[C@@H](CC(C)C)C(=O)N[C@@H](C)C(=O)N[C@@H](CCCCN)C(=O)N[C@@H](CCCCN)C(=O)N[C@@H](CC(C)C)C(=O)N[C@@H](CC(C)C)C(=O)O)[C@@H](C)CC', 'µM', 3.38),
  ('CC(C)C[C@H](NC(=O)[C@H](CCCCN)NC(=O)CNC(=O)[C@H](C)NC(=O)[C@H](CC(C)C)NC(=O)[C@H](CCCCN)NC(=O)[C@H](C)NC(=O)[C@H](CC(C)C)NC(=O)[C@H](CCCCN)NC(=O)CNC(=O)[C@H](C)NC(=O)[C@H](Cc1c[nH]c2ccccc12)NC(=O)[C@H](CCCCN)NC(=O)[C@H](C)NC(=O)[C@H](CC(C)C)NC(=O)[C@H](CCCCN)NC(=O)CNC(=O)[C@H](C)NC(=O)[C@H](CC(C)C)NC(=O)[C@@H](N)CCCCN)C(=O)N[C@@H](C)C(N)=O', 'µM', 7.49);
